# tested.on: CepR (Burkholderia cenocepacia, UniProt B4EMD0)
# Construct: HIS-CepR fusion protein (pDBHT2), cleaved with TEV protease
# Sequence (B4EMD0 entry or part of it): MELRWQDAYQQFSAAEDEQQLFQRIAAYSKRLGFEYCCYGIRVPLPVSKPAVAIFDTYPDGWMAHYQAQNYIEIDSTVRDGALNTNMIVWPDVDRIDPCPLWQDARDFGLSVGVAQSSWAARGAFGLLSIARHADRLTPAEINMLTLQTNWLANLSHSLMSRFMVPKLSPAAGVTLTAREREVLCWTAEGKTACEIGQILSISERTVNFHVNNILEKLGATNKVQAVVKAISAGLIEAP
# test.method.notes: ITC with purified protein (one-site model); EMSA shows inhibited binding to bclACB promoter
quantity.measured: pKd
Hey, just a heads up that pKd is the negative log base 10 of the concentration in molar.

Prompt: Query pKd for `C=C1C(=O)[C@]23[C@H](O)[C@H]1CC[C@H]2[C@@]12CO[C@]3(O)[C@@H](O)[C@@H]1C(C)(C)CC[C@@H]2O`
Response: 4.87

* * *

# tested.on: RqpR
# Construct: HIS-RqpR fusion protein (pDBHT2), cleaved with TEV protease
# test.method.notes: ITC with purified protein (one-site model); EMSA shows inhibited binding to rpfFBC and cepI promoters
quantity.measured: Kd (µM)
Return type: number; implicit unit µM.

Prompt: Query Kd for `C=C1C(=O)[C@]23[C@H](O)[C@H]1CC[C@H]2[C@@]12CO[C@]3(O)[C@@H](O)[C@@H]1C(C)(C)CC[C@@H]2O`
Response: 8.28
